- System: surinam grass
- Procedure Text: Test B pre/postemergence surinam grass
- Format: in vivo, Brachiaria decumbens
- Measurement Parameters: Postemergence, Rate 62 g/ha; scale of 0 to 10, 0 is no effect, 10 is complete control
Property: B. signalgrass plant response rating

CC(C)N(C(=O)n1oc(=O)n(CCCCF)c1=O)c1ccccc1: 5
CCc1nc(C)c(Cn2c(=O)on(C(=O)N(c3ccc(Cl)cc3)C(C)C)c2=O)s1: 0
CC(C)N(C(=O)n1oc(=O)n(CC2CC2)c1=O)c1ccccc1: 1
CC(C)N(C(=O)n1oc(=O)n(CCc2ccccc2)c1=O)c1ccc(F)cc1F: 0
COCn1c(=O)on(C(=O)N(c2ccc(Cl)cc2)C(C)C)c1=O: 0
CCC(=O)Cn1c(=O)on(C(=O)N(c2ccc(Cl)cc2)C(C)C)c1=O: 0
